The reader will find pKi measurements below, all made with human MCHR1 (Homo sapiens, UniProt Q99705).
Sequence (Q99705 whole entry): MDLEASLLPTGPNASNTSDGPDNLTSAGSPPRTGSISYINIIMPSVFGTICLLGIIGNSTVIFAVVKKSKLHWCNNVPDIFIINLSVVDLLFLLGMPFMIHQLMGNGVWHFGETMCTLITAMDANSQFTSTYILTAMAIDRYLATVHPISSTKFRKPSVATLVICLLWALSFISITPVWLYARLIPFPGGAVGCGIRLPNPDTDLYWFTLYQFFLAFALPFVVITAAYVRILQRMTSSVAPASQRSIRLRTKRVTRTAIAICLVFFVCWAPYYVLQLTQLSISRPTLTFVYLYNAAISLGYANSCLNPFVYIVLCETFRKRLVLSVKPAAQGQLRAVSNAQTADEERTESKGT
Scale: negative log10 of molar concentration, which is what pKi denotes.

A selection of reference data follows.
compound: O=C1c2cc(-c3nnc(CSCCOc4ccccc4)o3)ccc2CN1CCN1CCCCC1
reported_result: 5.70
//
compound: CN(C)Cc1cn(C)c2ccc(-c3nnc(CSCCOc4ccccc4)o3)cc12
reported_result: 4.96
//
compound: c1ccc(OCCSCc2nnc(-c3ccc4cc(CN5CCCCC5)ccc4c3)o2)cc1 [drawing 47]
reported_result: 7.75
//
compound: CN(C)Cc1c[nH]c2cc(-c3nnc(CSCCOc4ccccc4)o3)ccc12
reported_result: 6.17
//
compound: CN(C)Cc1cc2cc(-c3nnc(CSCCOc4ccccc4)o3)ccc2o1 [drawing 52]
reported_result: 6.82
//
compound: CN(C)Cc1cc2ccc(-c3nnc(CSCCOc4ccccc4)o3)cc2[nH]1 [drawing 54]
reported_result: 7.46
//
compound: CN(C)Cc1cc2cc(-c3nnc(CSCCOc4ccccc4)o3)ccc2o1 [drawing 50]
reported_result: 6.63
//
compound: CN(C)Cc1ccc2cc(-c3nnc(CSCCOc4ccccc4)o3)ccc2c1 [drawing 44]
reported_result: 8.09
//
compound: CN(C)Cc1cc2ccc(-c3nnc(CSCCOc4ccccc4)o3)cc2o1 [drawing 39]
reported_result: 6.43

Now for another entry.
Qu. Entry CN(C)Cc1cc2ccc(-c3nnc(CSCCOc4ccccc4)o3)cc2o1 [drawing 41] , system human MCHR1 (Homo sapiens, UniProt Q99705): what pKi was measured?
Ans. 6.42
